- System: SF-539 CNS
- protocol_details: NCI tumour cell line growth inhibition, 48 h
observable: TGI

In [3]: df
Out[3]:
                                   compound  target_desc  data_value
0         C(=NC12CC3CC(CC(C3)C1)C2)C1CCCCC1   SF-539 CNS    > 100 µM
1  C/C(=C\c1ccccc1)C(O)C(=O)c1nc2ccc(Cl)cc2[nH]c1=O (stereo not drawn)   SF-539 CNS    > 100 µM
2  CC1=C(C(=O)Nc2ccc3[nH]ncc3c2)C(c2ccc(F)cc2)N=C(c2ccc(C(F)(F)F)nc2)N1 (stereo not drawn)   SF-539 CNS     > 25 µM

---

Consider the following compounds and their measured TGI readings.
- System: SN12C renal
- protocol_details: NCI tumour cell line growth inhibition, 48 h
observable: TGI

compound	target_desc	observable	data_value
Fc1ccc2c(c1)SC1=Nc3sc4cc(F)ccc4[n+]3CN12	SN12C renal	TGI	51.2 µM
CN(CC(=O)Nc1ccccc1C(=O)O)c1ccccc1	SN12C renal	TGI	> 100 µM
CCC12C=C(C(=O)OC)N3c4ccccc4C4CCN(CCC1)C2C43 (stereo not given)	SN12C renal	TGI	> 100 µM
CC[C@]12C=CCN3CC[C@@]4(c5ccc(OC)cc5N(C)[C@H]4[C@@](O)(C(=O)OC)[C@@H]1OC(=O)CCCN1CCN(CCCC(=O)O[C@@H]4[C@]5(CC)C=CCN6CC[C@@]7(c8ccc(OC)cc8N(C)[C@H]7[C@@]4(O)C(=O)OC)[C@@H]65)CC1)[C@@H]32	SN12C renal	TGI	2.55 µM
COc1ccccc1CNCCCN1C(=O)c2ccc3c4c(ccc(c24)C1=O)C(=O)N(CCCNCc1ccccc1OC)C3=O	SN12C renal	TGI	0.305 µM

---

- Test system: SF-295 CNS
- protocol_details: NCI tumour cell line growth inhibition, 48 h
observable: TGI

>>> print(df.to_string())
                                   compound  data_value
0  O=C(CC1(O)C(=O)Nc2c(Cl)cc(Cl)cc21)c1cccc([N+](=O)[O-])c1 (stereo not drawn)    > 100 µM
1  NC(Cc1cc(I)c(Oc2ccc(O)c(I)c2)c(I)c1)C(=O)O (stereo not drawn)    > 100 µM
2  COc1ccc(OC)c(/C=C2/C(=O)N=C(NC(C)=O)N2C)c1    > 100 µM

---

- Tested on: ACHN renal
- protocol_details: NCI tumour cell line growth inhibition, 48 h
observable: TGI (µM)

compound	target_desc	units_symbol	measurement_qualifier	data_value
COC(=O)C1(CCCCl)CCCN1C(=O)OC(C)(C)C (centres undefined)	ACHN renal	µM	>	100
COc1ccc(OC)c(/C=C2/C(=O)N=C(NC(C)=O)N2C)c1	ACHN renal	µM	>	100
CC1(c2ccc(Cl)cc2)C=C(c2ccc(Cl)cc2)C(C#N)=C(C(C#N)C#N)N1 (centres undefined)	ACHN renal	µM	=	30.5
CO/C(N)=C(\C#N)N=Cc1ccsc1	ACHN renal	µM	>	100
COc1cc(Nc2nc3cc(C)ccc3nc2-c2ccccc2)cc(OC)c1OC	ACHN renal	µM	>	100
N#C[Se]CCN1C(=O)c2ccccc2C1=O	ACHN renal	µM	=	11.9
Cc1cnc2[nH]c(-c3cccc4ccccc34)cc(=O)c2c1	ACHN renal	µM	=	64.6
CNCc1cccc2c1OCCOCCOCCNS(=O)(=O)c1ccc(cc1)-c1cnc(N)c(n1)C(=O)N2	ACHN renal	µM	=	11.7
CC1OC(OC2C(OC(=O)[C@]34CCC(C)(C)C[C@H]3C3=CC[C@@H]5[C@@]6(C)CC[C@H](OC7OC(CO)C(O)C(O)C7OC7OC(CO)C(O)C(O)C7O)C(C)(C)[C@@H]6CC[C@@]5(C)[C@]3(C)CC4)OCC(O)C2O)C(O)C(O)C1OC1OCC(O)C(O)C1O (some centres undefined)	ACHN renal	µM	=	24.5

---

- System: SN12C renal
- protocol_details: NCI tumour cell line growth inhibition, 48 h
Consider the following molecules and their measured TGI readings.
observable: TGI

                                    molecule  data_value
 0  Cc1nn(C(=O)Cc2ccccc2)c2c1C(c1ccc(/C=C/c3ccccc3)cc1)SC(N)=N2 (configuration not stated)    > 100 µM
 1  Cc1ccc2c(c1C)CC1(Cc3ccc(C)c(C)c3C1=O)C2=O (configuration not stated)    > 100 µM
 2              C=CCN(CC=C)Cc1c[nH]c2ccccc12     41.8 µM
 3  COC(=O)N/N=C(\C)c1sc(-c2nc(C)c(/C(C)=N/NC(=O)OC)s2)nc1C    > 100 µM
 4    C(=C\c1cc[n+](CCc2ccccc2)cc1)/c1ccccc1     16.4 µM
 5  CS(=O)(=O)CCC1CCC(=O)O1 (configuration not stated)    > 100 µM
 6     CN(C)c1ccc(/C=C2\CCc3ccccc3C2=O)cc1Br    > 100 µM
 7  COC(=O)C1(CCCCl)CCCN1C(=O)OC(C)(C)C (configuration not stated)    > 100 µM
 8  O[C@@H]1[C@H](OC2c3ccccc3-c3ccccc32)[C@H](OCc2ccccc2)[C@@H]2OC[C@H]1O2    > 100 µM
 9  CC1C(OS(=O)(=O)c2ccc3[nH]c(=S)sc3c2)CC2C3(C)CCC2(C(C)C(=O)O)C(O)C13 (configuration not stated)    > 100 µM
10  CCc1nc(N)nc(N)c1-c1ccc(N2CCOCC2)c(N=[N+]=[N-])c1    > 100 µM
11  CN1CCN(C(=O)/C=C/c2ccc([N+](=O)[O-])o2)CC1     27.9 µM

---

Consider the following molecules and their measured TGI readings.
- System: T-47D breast
- protocol_details: NCI tumour cell line growth inhibition, 48 h

molecule	target_desc	units_symbol	measurement_qualifier	TGI
COC(=O)C1=C(OC)C(=P2(c3ccccc3)CC(c3ccccc3)=C2c2ccccc2)C(C(=O)OC)=C1C(=O)OC (configuration not stated)	T-47D breast	µM	>	51.5
Cc1nc2ccc(S(=O)(=O)O)cc2c(=O)n1-c1ccc(C(=O)NN2C(=O)C(Cl)C2c2cccs2)cc1 (configuration not stated)	T-47D breast	µM	>	100
OCc1ccc(N2CCc3ccc(F)cc3C2)cc1Cl	T-47D breast	µM	=	0.499
CC[C@]12C=CCN3CC[C@@]4(c5ccc(OC)cc5N(C)[C@H]4[C@@](O)(C(=O)OC)[C@@H]1OC(=O)CCCN1CCN(CCCC(=O)O[C@@H]4[C@]5(CC)C=CCN6CC[C@@]7(c8ccc(OC)cc8N(C)[C@H]7[C@@]4(O)C(=O)OC)[C@@H]65)CC1)[C@@H]32	T-47D breast	µM	=	3.44
O=C(Nc1ccc(Cl)cc1Cl)C1C(=O)OC2(CCCCC2)OC1=O	T-47D breast	µM	=	62.2
Cc1cccc(Oc2ccc(Nc3ncnc4ccc(NC(=O)CN(C)C)cc34)cc2Cl)c1	T-47D breast	µM	=	4.59
COc1cc(/C=C/C(=O)c2nc3cc(F)ccc3nc2C)cc(OC)c1OC	T-47D breast	µM	>	100

---

Consider the following compounds and their measured TGI readings.
- Tested on: MDA-MB-231 breast
- protocol_details: NCI tumour cell line growth inhibition, 48 h
observable: TGI

In [3]: df
Out[3]:
                                    compound        target_desc  data_value
 0  NC1=C(c2nc(-c3ccccc3)cs2)C(c2ccco2)c2c(c3ccccc3oc2=O)O1 (configuration not stated)  MDA-MB-231 breast    > 100 µM
 1  CCCCCCCCCCN=C(N)c1ccc(N2CCN(c3ccc(C(N)=NCCCCCCCCCC)cc3)CC2)cc1  MDA-MB-231 breast     17.9 µM
 2  O=c1c2sc3ccccc3sc=2c(=O)c2c(Cl)c(Cl)c(Cl)c(Cl)c12  MDA-MB-231 breast    > 100 µM
 3      COc1ccc(OC/C(N)=N/NC(=O)c2ccncc2)cc1  MDA-MB-231 breast    > 100 µM
 4    CC(C)(C)OC(=O)/N=C/c1c(O)c2ccccc2oc1=O  MDA-MB-231 breast       86 µM
 5  Cn1cc(-c2ccc3c(c2)ncn3-c2cc(NS(=O)(=O)C3CC3)cc(-c3ccc(F)cc3F)c2)cn1  MDA-MB-231 breast    > 100 µM
 6  CCOc1ccc(NC(=O)C(=O)C(/C(=N/N)C(=O)OC)c2nc3ccc([N+](=O)[O-])cc3[nH]c2=O)cc1 (configuration not stated)  MDA-MB-231 breast    > 100 µM
 7  O=[N+]([O-])c1ccc(N/N=C\c2cc(Br)ccc2O)nc1  MDA-MB-231 breast     4.76 µM
 8  COc1cc(S(=O)(=O)Nc2nc(-c3ccc(N=Cc4ccccc4O)cc3)cs2)ccc1Cl  MDA-MB-231 breast    > 100 µM
 9       NCCc1ccc(S(=O)(=O)O)cc1[N+](=O)[O-]  MDA-MB-231 breast    > 100 µM
10  CCOC(=O)C#Cc1c(C(=O)OCC)nnn1[C@@H]1O[C@H](COC)[C@@H](OC)[C@H]1OC  MDA-MB-231 breast     25.1 µM
11  O=c1c(-c2ccccc2)c(SCCCN2CCCCC2)n(-c2ccccc2)c(=S)n1-c1ccccc1  MDA-MB-231 breast     27.9 µM
12  CCOC(=O)c1c(C)n(-c2ccc(C)cc2)c(=O)c2ccccc2c(=O)c2c(=O)ccc(=O)c1=2  MDA-MB-231 breast    > 100 µM
13  COc1cc2c3c(n(CCCN)c(=O)c2cc1OC)-c1ccc(N)cc1C3=O  MDA-MB-231 breast     21.2 µM
14  C[C@H]1CCC/C=C/[C@@H]2C[C@H](OC(=O)CN(C)C)C[C@H]2[C@H](O)/C=C/C(=O)O1  MDA-MB-231 breast   0.0327 µM
15                 CO/C(N)=C(\C#N)N=Cc1ccsc1  MDA-MB-231 breast    > 100 µM
16  CC(=O)O[C@H]([C@H](OC(C)=O)[C@H](C)OC(C)=O)[C@@H](/C=C/[C@H]1CC=CC(=O)O1)OC(C)=O  MDA-MB-231 breast    > 100 µM
17  Fc1ccc2c(c1)SC1=Nc3sc4cc(F)ccc4[n+]3CN12  MDA-MB-231 breast     44.3 µM
18  CN(c1ccccc1)c1c2ccccc2nc2[nH]c3ccccc3c12  MDA-MB-231 breast     4.63 µM
19      Cc1ccc2c(=O)cc(-c3cc(C)sc3C)[nH]c2n1  MDA-MB-231 breast     65.8 µM
20  CCOC(=O)c1cn(-c2ccc([N+](=O)[O-])cc2)c(=S)n2c1nc1ccccc12  MDA-MB-231 breast    > 100 µM
21  O=C(c1c(F)c(F)c(F)c(F)c1F)n1c(=S)n(C(=O)c2c(F)c(F)c(F)c(F)c2F)c2ccccc21  MDA-MB-231 breast    > 100 µM
22   O=C1NC(=NCc2cccs2)O/C1=C\c1ccc2ncccc2c1  MDA-MB-231 breast     > 25 µM
23        NS(=O)(=O)c1cc2c(cc1Cl)NCNS2(=O)=O  MDA-MB-231 breast    > 100 µM
24  CCCCCC(=O)OC[n+]1cccc(-c2c(COC(=O)NC(C)C)c(COC(=O)NC(C)C)c3n2CCC3)c1  MDA-MB-231 breast    > 100 µM
25             NS(=O)(=O)c1c(O)c2ccccc2oc1=O  MDA-MB-231 breast    > 100 µM
26                 CN(/N=C/c1ccccn1)C1=NCCN1  MDA-MB-231 breast    > 100 µM
